organism: Rattus norvegicus; assay: Open TG-GATES - Regimen: Daily Repeat; assay type: toxicity, organism-based, Sprague-Dawley; parameters: regimen Daily Repeat, gender Male, age 6 weeks; conditions: in vivo, po, 0 mg/kg, […], tissue Blood, route gavage, dose level Control, time 7 day
Measured endpoint: RBC (x10_4/ul)
Give bare numbers, in x10_4/ul.

Worked examples, 10 compounds total:
Nc1nc(N)c2nc(-c3ccccc3)c(N)nc2n1 ... 675.8
C[C@]12CCC(=O)C=C1CC[C@@H]1[C@@H]2CC[C@@]2(C)[C@H]1CC[C@]2(C)O ... 623.8
CC(C)C(=O)Nc1ccc([N+](=O)[O-])c(C(F)(F)F)c1 [FLUTAMIDE] ... 652.6
CCN1CCCC1CNC(=O)c1cc(S(N)(=O)=O)ccc1OC (stereo unspecified) [SULPIRIDE] ... 672.6
CCSCC[C@H](N)C(=O)O ... 666
Oc1ncnc2[nH]ncc12 ... 737.4
C[C@](N)(Cc1ccc(O)c(O)c1)C(=O)O ... 641.2
CC(=O)Oc1cc(C(C)C)c(OCCN(C)C)cc1C ... 656.8
CCC(C)(C)C(=O)O[C@H]1C[C@@H](C)C=C2C=C[C@H](C)[C@H](CC[C@@H]3C[C@@H](O)CC(=O)O3)[C@H]21 ... 606.2
CC(=N)S [THIOACETAMIDE] ... 661.6

Please give the documented RBC of `CC(C)(S)[C@@H](N)C(=O)O`
674.8

====

organism: Rattus norvegicus; assay: Open TG-GATES - Regimen: Single; format: toxicity, organism-based, Sprague-Dawley; set-up: regimen Single, gender Male, age 6 weeks; conditions: in vivo, po, 0 mg/kg, 6 h, tissue Blood, route gavage, dose level Control
Kindly supply the reported MCHC values for the records listed here.
Answers are plain numbers, in %.

Previously resolved entries follow.
O=C(O)c1cccnc1 [NIACIN] ... 33.7
CC(=N)S [THIOACETAMIDE] ... 33.1
CCc1oc2ccccc2c1C(=O)c1cc(I)c(O)c(I)c1 [BENZIODARONE] ... 33.3
Oc1ncnc2[nH]ncc12 [ALLOPURINOL] ... 33.4
O=C(N[C@H](CO)[C@H](O)c1ccc([N+](=O)[O-])cc1)C(Cl)Cl [CHLORAMPHENICOL] ... 30.9
CCC(C)(C)C(=O)O[C@H]1C[C@@H](C)C=C2C=C[C@H](C)[C@H](CC[C@@H]3C[C@@H](O)CC(=O)O3)[C@H]21 [SIMVASTATIN] ... 32.8

Quick one: give measured MCHC for CC(C)C(=O)Nc1ccc([N+](=O)[O-])c(C(F)(F)F)c1 [FLUTAMIDE]
34.5

====

Answer each item with its documented Ht.
species: Rattus norvegicus; assay: Open TG-GATES - Regimen: Daily Repeat; type: toxicity, organism-based, Sprague-Dawley; design: regimen Daily Repeat, gender Male, age 6 weeks; details: in vivo, po, 0 mg/kg, 72 h, tissue Blood, route gavage, dose level Control, time 3 day
Give bare numbers, in %.

// worked examples, Ht included
Nc1nc(N)c2nc(-c3ccccc3)c(N)nc2n1 ... 40.7
Oc1ncnc2[nH]ncc12 ... 41.5
CC(=N)S [THIOACETAMIDE] ... 42.6

Moving on to another compound below.
Identify measured Ht corresponding to `CCc1oc2ccccc2c1C(=O)c1cc(I)c(O)c(I)c1`
41.9
